Where these numbers come from: patent US20150038435A1

As shown below, each of these substances has a reported RT (retention time during reverse phase HPLC as a measure of hydrophobicity) value.
measurement_notes: Hydrophobicity: retention time during reverse phase HPLC
Assay type: physicochemical
protocol_conditions: Acquity CSH C18; pH 7.2 buffer/CH3CN gradient; 40° C.
Starred links: 1 amine or outer side, 2 acyl side, 3 side chain; linkers in the order of their positions; H or OH if unused. Non-standard residues stand in square brackets, D forms with d. *: point of attachment. γGlu = O=C(O)[C@H](CCC(=O)[*:2])N[*:1]; Lauroyl = CCCCCCCCCCCC(=O)*
Please respond with the number in min and leave the unit unwritten.

| substance | result |
| --- | --- |
| N-dodecanoyl-Glu-Ala-Pro-Tyr-OH (Lauroyl-EAPY-OH; SMILES CCCCCCCCCCCC(=O)N[C@@H](CCC(=O)O)C(=O)N[C@@H](C)C(=O)N1CCC[C@H]1C(=O)N[C@@H](Cc1ccc(O)cc1)C(=O)O) [Example 105] | 3.91 |
| N-dodecanoyl-γGlu-Ala-Pro-Phe-OH (Lauroyl-[γGlu]APF-OH; SMILES CCCCCCCCCCCC(=O)N[C@@H](CCC(=O)N[C@@H](C)C(=O)N1CCC[C@H]1C(=O)N[C@@H](Cc1ccccc1)C(=O)O)C(=O)O) [Example 22] | 4.09 |
| N-dodecanoyl-γGlu-OEG-Ala-Ala-Pro-Phe-OH [Example 125] | 3.95 |
| N-dodecanoyl-Pro-Pro-Tyr-OH [Example 106] | 6.01 |

API: the following record is the query input.
Q: Please report RT (retention time during reverse phase HPLC as a measure of hydrophobicity) for the following substance: N-dodecanoyl-γGlu-Ala-Ala-Pro-Phe-OH [Example 12]
Result: 4.04
